system: 313798-341-R-J2-PDC spheroids, viability; experiment: Anticancer human tumor 313798-341-R-J2-PDC patient-derived cervical squamous cell carcinoma cell line growth inhibition [PI3K]; conditions: second compound 10 µM; first compound 0.1 µM; hits give low values; spheroids with HUVEC and MSC
Reported viability, T/C values for the following compounds.
Write the answer as a number in %, unit excluded.

Observe how each entry below is paired with its result.
Kindly note the recorded viability, T/C for CC(C)NCC(C(=O)N1CCN(c2ncnc3c2C(C)CC3O)CC1)c1ccc(Cl)cc1 (stereo unspecified) + CC(Nc1ncnc2nc[nH]c12)c1cc2cccc(Cl)c2c(=O)n1-c1ccccc1 , which is 86.3

Input C=CC(=O)N1CCN(c2nc(=O)n(-c3c(C)ccnc3C(C)C)c3nc(-c4c(O)cccc4F)c(F)cc23)C(C)C1 (stereo unspecified) + Cc1nc(NC(=O)N2CCCC2C(N)=O)sc1-c1ccnc(C(C)(C)C(F)(F)F)c1 . Output viability, T/C: 32.4

Memo: C[C@@H](NC(=O)c1ncnc(N)c1Cl)c1ncc(C(=O)Nc2cc(C(F)(F)F)c(Cl)cn2)s1 + CC(Nc1ncnc2nc[nH]c12)c1cc2cccc(Cl)c2c(=O)n1-c1ccccc1 , reported viability, T/C: 85.2

According to the records, this compound CNC(=O)c1ccc(N2C(=S)N(c3ccc(C#N)c(C(F)(F)F)c3)C(=O)C2(C)C)cc1F + Cc1nc(NC(=O)N2CCCC2C(N)=O)sc1-c1ccnc(C(C)(C)C(F)(F)F)c1 displays viability, T/C of 39.3

CC1(C)CCC(CN2CCN(c3ccc(C(=O)NS(=O)(=O)c4ccc(NCC5CCOCC5)c([N+](=O)[O-])c4)c(Oc4cnc5[nH]ccc5c4)c3)CC2)=C(c2ccc(Cl)cc2)C1 + Cc1nc(NC(=O)N2CCCC2C(N)=O)sc1-c1ccnc(C(C)(C)C(F)(F)F)c1 has a reported viability, T/C of 34.1

Continuing:
// sample Cn1ncc(Cl)c1-c1cc(C(=O)NC(CN)Cc2cccc(F)c2)sc1Cl (stereo unspecified) + CC(Nc1ncnc2nc[nH]c12)c1cc2cccc(Cl)c2c(=O)n1-c1ccccc1 , its viability, T/C was 78.1

Per the records, this compound ( CCN1CCN(Cc2ccc(Nc3ncc(F)c(-c4cc(F)c5nc(C)n(C(C)C)c5c4)n3)nc2)CC1 + CC(Nc1ncnc2nc[nH]c12)c1cc2cccc(Cl)c2c(=O)n1-c1ccccc1 ) has viability, T/C equal to 85.8

---

system: 313798-341-R-J2-PDC spheroids, viability; experiment: Anticancer human tumor 313798-341-R-J2-PDC cell line growth inhibition [PI3K]; conditions: second compound 1 µM; first compound 10 µM; hits give low values; spheroids with HUVEC and MSC;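 note: spheroids exposed to compounds for seven days; 100% = DMSO vehicle control viability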
viability, T/C for assorted compounds

// CC(Cn1ccc(-c2ccc(C#N)c(Cl)c2)n1)NC(=O)c1cc(C(C)O)[nH]n1 (stereo not drawn) + Cc1nc(NC(=O)N2CCCC2C(N)=O)sc1-c1ccnc(C(C)(C)C(F)(F)F)c1 : viability, T/C value = 84.1%

Briefly, viability, T/C measured for Cn1ncc(Cl)c1-c1cc(C(=O)NC(CN)Cc2cccc(F)c2)sc1Cl (stereo not drawn) + COc1c(OCCCN2CCOCC2)ccc2c3n(c(=NC(=O)c4cnc(N)nc4)nc12)CCN3 : 3.3%

Note to self: viability, T/C recorded for C#Cc1c(F)ccc2cc(O)cc(-c3ncc4c(N5CC6CCC(C5)N6)nc(OCC56CCCN5CC(F)C6)nc4c3F)c12 (stereo not drawn) + Cc1nc(NC(=O)N2CCCC2C(N)=O)sc1-c1ccnc(C(C)(C)C(F)(F)F)c1 was 79%

response.value for CNC(=O)c1ccc(N2C(=S)N(c3ccc(C#N)c(C(F)(F)F)c3)C(=O)C2(C)C)cc1F + COc1c(OCCCN2CCOCC2)ccc2c3n(c(=NC(=O)c4cnc(N)nc4)nc12)CCN3 (field: viability, T/C) = 8.76%

// recorded viability, T/C for CC1(C)CCC(CN2CCN(c3ccc(C(=O)NS(=O)(=O)c4ccc(NCC5CCOCC5)c([N+](=O)[O-])c4)c(Oc4cnc5[nH]ccc5c4)c3)CC2)=C(c2ccc(Cl)cc2)C1 + COc1c(OCCCN2CCOCC2)ccc2c3n(c(=NC(=O)c4cnc(N)nc4)nc12)CCN3 : 11.2%

The compound listed as CC(C)NCC(C(=O)N1CCN(c2ncnc3c2C(C)CC3O)CC1)c1ccc(Cl)cc1 (stereo not drawn) + Cc1nc(NC(=O)N2CCCC2C(N)=O)sc1-c1ccnc(C(C)(C)C(F)(F)F)c1 shows viability, T/C equal to 30.3%

Query CC1(C)CCC(Nc2ncc(C(F)(F)F)c(-c3c[nH]c4c(P(C)(C)=O)c(C#N)ccc34)n2)CN1 (stereo not drawn) + CC(Nc1ncnc2nc[nH]c12)c1cc2cccc(Cl)c2c(=O)n1-c1ccccc1 yields viability, T/C of 58.2%

Please examine the following record next.
Given item CC(Cn1ccc(-c2ccc(C#N)c(Cl)c2)n1)NC(=O)c1cc(C(C)O)[nH]n1 (stereo not drawn) + CC(Nc1ncnc2nc[nH]c12)c1cc2cccc(Cl)c2c(=O)n1-c1ccccc1 , the value recorded as its viability, T/C is 91.5%
